Target or system NS5B (Hepatitis C virus genotype 1b): recorded log10 of IC50 listed per item.
Scale type: logarithmic (base 10). Underlying IC50 unit: nM.

Here is how some molecules turned out for log10 of IC50.
CN(C)S(=O)(=O)NC(=O)c1ccc2c(C3CCCCC3)c3n(c2c1)CCN1CC[C@@H](N)c2cccc-3c21    0.00
CCC1(CC)C(=O)N2CCCn3c(c(C4CCCCC4)c4ccc(C(=O)O)cc43)-c3ccc(F)c1c32    1.00
CN(C)C(=O)c1c(CN2CCCCC2)c2cccc3c2n1CCCn1c-3c(C2CCCCC2)c2ccc(C(=O)O)cc21    0.60
CC1(C)C(=O)N2CCn3c(c(C4CCCCC4)c4ccc(C(=O)O)cc43)-c3cccc(c32)[C@@H]1N    2.30
COCCNC1CCN2CCn3c(c(C4CCCCC4)c4ccc(C(=O)O)cc43)-c3cccc1c32 (stereo not shown)    0.63
CC1(C)CN2CCCn3c(c(C4CCCCC4)c4ccc(C(=O)O)cc43)-c3cccc1c32    1.18

stdin: Please report log10 of IC50 for the following molecule: O=C(NCCN1CCCC1)N[C@@H]1CCN2CCn3c(c(C4CCCCC4)c4ccc(C(=O)O)cc43)-c3cccc1c32
stdout: 0.22

###

Target or system UniProt:Q9WMX2: recorded log10(IC50) listed per item.
Scale type: logarithmic (base 10). Underlying IC50 unit: nM.

Here is how some compounds turned out for log10(IC50).
CN(C)C(=O)c1c(CN2CCOCC2)c2cccc3c2n1CCCn1c-3c(C2CCCCC2)c2ccc(C(=O)O)cc21    0.70
O=C(O)c1ccc2c(C3CCCCC3)c3n(c2c1)CCN1CCC(N2CCCCC2)c2cccc-3c21 (stereo not drawn)    0.26
CC(C)(C)OC(=O)N[C@H]1CCN2CCn3c(c(C4CCCCC4)c4ccc(C(=O)O)cc43)-c3cccc1c32    0.93
CCN(C)Cc1c(C(=O)N2CCN(C(C)=O)CC2)n2c3c(cccc13)-c1c(C3CCCCC3)c3ccc(C(=O)O)cc3n1CCC2    0.85
CC1(C)CN2CCn3c(c(C4CCCCC4)c4ccc(C(=O)O)cc43)-c3cccc(c32)[C@@H]1N    1.36
CC(C)N1CCC[C@H]1C(=O)N[C@@H]1CCN2CCn3c(c(C4CCCCC4)c4ccc(C(=O)O)cc43)-c3cccc1c32    -0.11

stdin: Under UniProt:Q9WMX2: report log10(IC50) of CCN(C)Cc1c(C(=O)N(C)Cc2ccccc2)n2c3c(cccc13)-c1c(C3CCCCC3)c3ccc(C(=O)O)cc3n1CCC2 .
stdout: 0.95

stdin: Under UniProt:Q9WMX2: report log10(IC50) of N[C@@H]1CCN2CCn3c(c(C4CCCCC4)c4ccc(C(=O)O)cc43)-c3cccc1c32 .
stdout: 0.39

###

- assayed-target: HCV-NS5b (Hepatitis C virus genotype 1b, UniProt Q9WMX2)
- Construct: (His)6 (C); made in house; host or cells: XL-1 cells (E. coli), IPTG-inducible plasmid
- assay-remarks: HCV-NS5b enzyme assay using homopolymer substrate
- Assay type: biochemical
- applied-conditions: homopolymer substrate, [3H]-UTP incorporation, 30° C., 90 minutes; read-out: IC50
Quick list: pIC50 per entry.
Here pIC50 is given on a logarithmic scale as minus log10 of the concentration in mol/L.

Here is how some compounds turned out for pIC50.
CCC(CC)NCc1cn2c3c(cccc13)-c1c(C3CCCCC3)c3ccc(C(=O)O)cc3n1CCC2    6.65
O=C(O)c1ccc2c(C3CCCCC3)c3n(c2c1)CCCn1cc(CN2CCCC(O)C2)c2cccc-3c21 (stereo not shown)    6.81
O=C(O)c1ccc2c(C3CCCCC3)c3n(c2c1)CCCn1cc(CCCN2CCCC2)c2cccc-3c21    6.77

stdin: Please report pIC50 for the following compound: CCN(CC)Cc1cn2c3c(cccc13)-c1c(C3CCCCC3)c3ccc(C(=O)O)cc3n1CC2
stdout: 7.19
